Experiment: Experimental logP and logD determination (1-octanol/water or PBS, gamma counter)
Assay type: physicochemical
Conditions: experimentally determined, 1-octanol/water
READOUT_LABEL: logP

{"COMPOUND": "O=C(c1ccc(F)nc1)N1CCN(C(=O)c2cc(Cc3n[nH]c(=O)c4ccccc34)ccc2F)CC1 [[^18F]FPyPARP]", "logP": 1.16}

[a] O=C1NCCn2c(-c3ccc(OCC[18F])cc3)nc3cccc1c32 [[^18F]FTT]
[b] O=C(c1ccc([18F])cc1)N1CCN(C(=O)c2cc(Cc3n[nH]c(=O)c4ccccc34)ccc2F)CC1 [[^18F]PARPi]
Q) Looking at recorded values for logP, does a or b come in lower? Refer to your chosen item by its label in the answer.
A) a
